Property: IC50; scope: individual binders
systemUnderTest: T1, human HHLA2-mIgG2a fusion protein (human; mouse, UniProt Q9UM44 23-344, limits assumed)
T1 construct: also called hHHLA2-mIgG2a; HHLA2-Fc
T1 sequence: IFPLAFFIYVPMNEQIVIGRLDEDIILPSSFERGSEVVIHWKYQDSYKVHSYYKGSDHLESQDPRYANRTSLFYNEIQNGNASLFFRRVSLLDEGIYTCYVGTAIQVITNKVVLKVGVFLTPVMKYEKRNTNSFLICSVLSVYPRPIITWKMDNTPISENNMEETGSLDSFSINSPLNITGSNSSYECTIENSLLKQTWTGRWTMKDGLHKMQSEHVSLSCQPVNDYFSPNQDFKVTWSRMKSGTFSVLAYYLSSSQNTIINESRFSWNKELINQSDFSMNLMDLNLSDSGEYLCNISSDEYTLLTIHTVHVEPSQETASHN
testDetails: flow cytometry, mAb pre-incubated with 4 ug/ml HHLA2-mIgG2a; blockade of its binding to KIR3DL3-transfected 293T cells
Form entry: value (µg/mL) — number only.

>  <binder>
anti-HHLA2 monoclonal antibody 4D1 (antibody, IgG1, V domains shown, also called 499.5.4D1.5.16; MHC2563) VH: QVQLQQSGAELVRPGVSVKISCKGSGYTFTDYAMHWVKQSHAKSLEWIGSISTYYGDTNYNQKFKGKATMTVDKSSSTAYMELARLTSEDSAIYYCARGNYDDWYFNVWGAGTTVTVSS VL: DIQMTQSPSSLSASLGERVSLTCRASQDISGYLSWLQQKPDGTIKRLIYSTSTLDSGVPKRFSGSRSGSDYSLTISSLESEDFADYYCLQYASSPYTFGGGAKLEIK

>  <IC50 (µg/mL)>
0.68

$$$$
>  <binder>
anti-HHLA2 monoclonal antibody 6D10 (antibody, IgG1, V domains shown, also called 6DI0; 499.5.6D10.11.11.7) VH: EVQLVETGGGLVQPKGSLKLSCAASGFTFNTNVMNWVRQAPGKGLEWVARIRTKTNNYATYYADSVKDRFTIFRDDSQSILYLQMNNLKTEDTAMYYCVGAMDYWGQGTSVTVSS VL: DIVLTQSPASLAVSLGQRATISCRASESVDNYGISFMHWYQQKPGQPPKLLIYRASNLKSGIPARFSGSGSRTDFTLTINPVETGDVATYYCQQSSKDPPTFGTGTKLELK

>  <IC50 (µg/mL)>
7

$$$$

Entry anti-HHLA2 monoclonal antibody 2C4 (antibody, IgG1, V domains shown, also called 499.5.2C4.E6.6.8.1; MHC2562) VH: EVHLQQSGPELEKPGVSVKISCKASGFSFTDYNMNWVKQSSGKSLEWIGNIDPYYGRINYNQKFKGKATLSVDKSSSTAYMHLKSLTSEDSAVYYCATGAYTSGYSWFAYWGQGTLVTVSA VL: ENVLTQSPGIMAASLGEKVTMTCSASSSVSSSYLHWYQQRSGASPKPLIHRTSNLASGVPARFSGSGSGTSYSLTISSVEAEDDATYYCQQWSGYPFTFGSGTKLEIK has what IC50? 0.52
